The entries below come with measured Ki values attached.
Molecular target: rat NK1 receptor (rat) (UniProt P14600)
Sequence (P14600 whole entry): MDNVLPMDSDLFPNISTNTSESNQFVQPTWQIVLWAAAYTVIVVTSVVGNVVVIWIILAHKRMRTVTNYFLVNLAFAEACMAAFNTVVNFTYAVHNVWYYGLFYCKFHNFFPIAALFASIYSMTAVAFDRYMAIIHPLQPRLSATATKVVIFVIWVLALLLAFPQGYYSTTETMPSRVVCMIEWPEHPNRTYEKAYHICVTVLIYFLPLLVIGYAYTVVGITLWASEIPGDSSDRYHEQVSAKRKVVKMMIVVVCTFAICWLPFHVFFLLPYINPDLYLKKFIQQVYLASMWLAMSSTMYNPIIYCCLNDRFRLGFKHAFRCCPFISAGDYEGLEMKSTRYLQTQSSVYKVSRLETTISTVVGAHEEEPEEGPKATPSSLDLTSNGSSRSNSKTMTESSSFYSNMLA
Assay: competition vs [3H]Substance P, rNK1 CHO cell membranes
Bridge positions count the residues as written; N and C are the ends. Square brackets hold non-standard residues; d marks the D form. Ends that are not written are not given here. * marks the point of attachment. NH(3,5-(CF3)2-benzyl) = FC(F)(F)c1cc(CN*)cc(C(F)(F)F)c1; dPen = CC(C)(S)[C@@H](N)C(=O)O; Pen = CC(C)(S)[C@H](N)C(=O)O; Nle = CCCC[C@H](N)C(=O)O
The reply should contain only the number, in nM.

BINDER	MEASURED_ENDPOINT	MEASURED_RESULT
Y[dPen]GF[Nle]P[dPen]W-{NH(3,5-(CF3)2-benzyl)} (disulfide 2-7) [Tyr[DPenGlyPheNleProDPen]TrpNHBn(CF3)2]	Ki	26

// switching to the query binder
Ask: If you can, please state the reported Ki value of Y[dPen]GF[Nle]P[Pen]W-{NH(3,5-(CF3)2-benzyl)} (disulfide 2-7) [Tyr[DPenGlyPheNleProPen]TrpNHBn(CF3)2] .
Result: 163
